assay: P-glycoprotein substrates identified in KB-8-5-11 adenocarcinoma cell line, qHTS therapeutic library screen (AID 1346987); conditions: KB-8-5-11 (P-gp overexpressing) viability, CellTiter-Glo, 72 h; series mostly up to 44.5 µM; note: nearly all actives have a fitted effect of over 65% in size
Records with an inconclusive call do not appear. The source made the active and inactive calls. Calls come from the whole dose curve; as a rule, active = well fitted inhibition curve with a large enough effect; inconclusive = small, poorly fitted or top-dose-only effect; inactive = flat fitted curve, though single readings scatter.
Classes used: true (1) = active, false (0) = inactive

compound	class.name
CCS(=O)(=O)c1cccc(-c2cc(C(=O)NC3CCN(C)CC3)c(C)c3[nH]c4ncc(C)cc4c23)c1	false (0)
COc1cccc(Nc2c(C(N)=O)cnc3c(C)cc(S(=O)(=O)c4cccc(C(=O)N(C)C)c4)cc23)c1	false (0)
CC(C)(C)c1cc(C(C)(C)C)c(NC(=O)c2c[nH]c3ccccc3c2=O)cc1O	false (0)
COc1ccc(-n2nc(C(N)=O)c3c2C(=O)N(c2ccc(N4CCCCC4=O)cc2)CC3)cc1	false (0)
CC1COC2(CCN(c3nc(=O)c4cc(C(F)(F)F)cc([N+](=O)[O-])c4s3)CC2)O1 (centres undefined)	false (0)
CN1CCN(Cc2ccc(NC(=O)Nc3ccc(Oc4cc(NC(=O)C5CC5)ncn4)cc3)cc2C(F)(F)F)CC1	true (1)
C=CC(=O)Nc1cc2c(Nc3ccc(F)c(Cl)c3)ncnc2cc1OCCCN1CCOCC1	true (1)
CC(C)[C@H](C(=O)Nc1ccc(C(=O)NO)cc1)c1ccccc1	true (1)
C[C@]12CC[C@H](O)CC1=CCC1C2CC[C@]2(C)C(n3cnc4ccccc43)=CCC12 (some centres undefined)	false (0)

* * *

assay: Quantitative High-Throughput drug screen in 47 multiple myeloma cell lines against the NCATS MIPE library collection: XG1_PLB cell viability assay (AID 1919866); conditions: CellTiter-Glo ATP, 48 h; series mostly up to 45.8 µM; note: nearly all actives have a fitted effect of over 35% in size; note: potency is the fitted concentration of half-maximal effect
Results filed as inconclusive are left out. Active and inactive are the calls of the source. Calls come from the whole dose curve; as a rule, active = well fitted cell-killing curve with a large enough effect; inconclusive = small, poorly fitted or top-dose-only effect, or effect the other way; inactive = no such curve, though single readings can be large or run the other way.
reported.property: Potency

compound	reported.property	result
C=CCn1c(=O)c2cnc(Nc3ccc(N4CCN(C)CC4)cc3)nc2n1-c1cccc(C(C)(C)O)n1	Potency	166 nM (active)
O=C(O)CCCc1c[nH]c2ccccc12	Potency	inactive
c1ccc2c(CCNc3ccc(Nc4ccncc4)cc3)c[nH]c2c1	Potency	20900 nM (active)
CCn1cc(-c2ccnc3[nH]c(-c4cccc(CN(C)C)c4)cc23)c(-c2ccc(NC(=O)N(C)C)cc2)n1	Potency	1180 nM (active)
CC1(C)CCC(c2ccc(Cl)cc2)=C(CN2CCN(c3ccc(C(=O)NS(=O)(=O)c4ccc(N[C@H](CCN5CCOCC5)CSc5ccccc5)c(S(=O)(=O)C(F)(F)F)c4)cc3)CC2)C1	Potency	16600 nM (active)
C[C@H]1C[C@@H]2[C@@H]([C@@H](O)C[C@@]3(C)[C@H]2CC[C@]3(O)C(=O)CO)[C@@]2(C)C=CC(=O)C=C12	Potency	inactive
O=C(O)C1(Cc2cccc(Nc3nccs3)n2)CCC(Oc2cccc(Cl)c2F)CC1 (stereo unspecified)	Potency	52.6 nM (active)
O=c1[nH]nc(Sc2ncc([N+](=O)[O-])s2)n1-c1ccc2c(c1)OCCO2	Potency	2090 nM (active)
Cc1cn2cc(C(=O)N(C)CCO)cc(N[C@@H]3CCOc4cccc(C)c43)c2n1	Potency	inactive
C[C@@H]1COC(Nc2ccc3ncnc(Nc4ccc(OCc5nccs5)c(Cl)c4)c3c2)=N1	Potency	105 nM (active)
CC(=O)OCC(=O)[C@@]1(O)[C@H](C)C[C@H]2[C@@H]3C=C(C)C4=Cc5c(cnn5-c5ccccc5)C[C@]4(C)[C@@H]3[C@@H](O)C[C@@]21C	Potency	5260 nM (active)
Cc1nc(N)ncc1-c1nc(N2CCOCC2)c2sc(C(C)(C)O)cc2n1	Potency	1660 nM (active)
CC(C)(C)c1cnc(CSc2cnc(NC(=O)C3CCNCC3)s2)o1	Potency	296 nM (active)
CN1CCN(Cc2ccc(NC(=O)Nc3ccc(Oc4cc(NC(=O)C5CC5)ncn4)cc3)cc2C(F)(F)F)CC1	Potency	187 nM (active)
CN1CCC(CNc2ccc3ncc(-c4cccc(OC(F)(F)F)c4)n3n2)CC1	Potency	5900 nM (active)
Nc1nc(NCCNc2ncc(-n3ccnc3)c(-c3ccc(Cl)cc3Cl)n2)ccc1[N+](=O)[O-]	Potency	6620 nM (active)
C=C1C(=CC=C2CCC[C@]3(C)[C@@H]([C@H](C)C=C[C@H](C)C(C)C)CC[C@@H]23)C[C@@H](O)C[C@@H]1O	Potency	1320 nM (active)
CC[C@@]1(O)C(=O)OCc2c1cc1n(c2=O)Cc2cc3cc(O)ccc3nc2-1	Potency	66.2 nM (active)
COC(=O)Nc1ccc(-c2nc(N3CCOCC3)c3cnn(C4CCN(Cc5cccnc5)CC4)c3n2)cc1	Potency	23.5 nM (active)
C=C1C(=CC=C2CCCC3(C)[C@@H]([C@H](C)C=CC=CC(O)(CC)CC)CC[C@@H]23)C[C@@H](O)C[C@@H]1O (stereo partly specified)	Potency	20900 nM (active)
Cc1nc(Nc2n[nH]c3c2CN(C(=O)N[C@H](CN(C)C)c2ccccc2)C3(C)C)c2sccc2n1	Potency	296 nM (active)
CCCCc1nc2cc(C=CC(=O)NO)ccc2n1CCN(CC)CC	Potency	1480 nM (active)
COc1cc2ncnc(Nc3ccc(F)c(Cl)c3)c2cc1NC(=O)C=CCN1CCCCC1	Potency	4180 nM (active)
CN(C)CCCN=c1c2ccccc2n(C)c2[nH]c(=O)n(C)c(=O)c12	Potency	14800 nM (active)
CC(=O)Nc1sc2c(c1-c1nc3ccccc3s1)CNC2	Potency	14800 nM (active)
CN(c1ncccc1CNc1nc(Nc2ccc3c(c2)CC(=O)N3)ncc1C(F)(F)F)S(C)(=O)=O	Potency	3320 nM (active)
N#CCNC(=O)c1ccc(-c2ccnc(Nc3ccc(N4CCOCC4)cc3)n2)cc1	Potency	5260 nM (active)
CCS(=O)(=O)c1cccc(-c2cc(C(=O)NC3CCN(C)CC3)c(C)c3[nH]c4ncc(C)cc4c23)c1	Potency	526 nM (active)
Cc1cc(Nc2cc(NC(=O)c3c(Cl)cccc3Cl)ccn2)nc(N)n1	Potency	1180 nM (active)
OCc1ccc(-c2ccc(-c3ccc(CO)s3)o2)s1	Potency	6620 nM (active)
CC(C)C[C@H](NC(=O)CNC(=O)c1cc(Cl)ccc1Cl)B(O)O	Potency	46.9 nM (active)
Nc1ncnc2c1c(-c1cccc(OCc3ccccc3)c1)cn2C1CC(CN2CCCC2)C1 (stereo unspecified)	Potency	8330 nM (active)
CNc1nccc(-c2cccnc2Oc2cc(C(=O)Nc3cccc(C(F)(F)F)c3)ccc2C)n1	Potency	2350 nM (active)
Nc1nccc(Oc2ccc(NC(=O)c3c[nH]cc(-c4ccc(F)cc4)c3=O)cc2F)c1Cl	Potency	18700 nM (active)
COc1cccc2c(NCc3ccccc3)nc(-n3c(N)nc4ccccc43)nc12	Potency	2350 nM (active)
Cn1cncc1[C@@](N)(c1ccc(Cl)cc1)c1ccc2c(c1)c(-c1cccc(Cl)c1)cc(=O)n2C	Potency	332 nM (active)
